Test system: Melanin-concentrating hormone receptor (Homo sapiens, UniProt Q969V1+Q99705)
Experiment notes: Inhibition of Melanin-concentrating hormone (MCH) mediated [Ca2+] release in IMR-32 cells
Type: functional, cell-based
Would you mind telling me the reported IC50 of each entry?
Hi! Could you send only the number? It should be in µM, unit omitted.

Entry `O=c1n(-c2ccc(Oc3ccccc3)cc2)ccn1-c1ccc2c(cnn2CCN2CCCC2)c1` has what IC50?
0.654

Entry `COC[C@@H]1CCCN1CCn1ncc2cc(NC(=O)Nc3ccc(Oc4ccccc4)cc3)ccc21` has what IC50?
0.516

----------
Would you mind telling me the reported Cmax of each entry?
Experiment notes: Maximum plasma compound (10 mg/kg, p.o.) concentration in diet-induced obese mice
Type: ADME, organism-based
Set-up: dose 10 mg/kg, route oral
Settings: mouse, po
Hi! Could you send only the number? It should be in ng/mL, unit omitted.

Entry `O=c1n(-c2ccc(Oc3ccccc3)cc2)ccn1-c1ccc2c(cnn2CCN2CCCC2)c1` has what Cmax?
543

Entry `O=C(Nc1ccc(Oc2ccccc2)cc1)Nc1ccc2c(cnn2CCN2CCCC2)c1` has what Cmax?
246

Entry `O=C(NCCc1ccc(Oc2ccccc2)cc1)Nc1ccc2cnn(CCN3CCCC3)c2c1` has what Cmax?
86

Entry `O=C(Cc1ccc(OCc2ccccc2)cc1)Nc1ccc2cnn(CCN3CCCC3)c2c1` has what Cmax?
596

----------
Would you mind telling me the reported log10 of IC50 of each entry?
Test system: UniProt:Q99705
Experiment notes: Inhibitory concentration against human Melanin-concentrating hormone receptor 1 expressed in IMR-32 cells using [125I]MCH
Please keep in mind that the values are log10 of IC50 expressed in nM.

Entry `CC(C)CNCCn1ncc2cc(NC(=O)Nc3ccc(Oc4ccccc4)cc3)ccc21` has what log10 of IC50?
0.26

Entry `O=C(NCCc1ccc(Oc2ccccc2)cc1)Nc1ccc2cnn(CCN3CCCC3)c2c1` has what log10 of IC50?
1.54

Entry `O=C(Nc1ccc(OCc2ccccc2)cc1)Nc1cccc2c1cnn2CCN1CCCC1` has what log10 of IC50?
3.02

Entry `NC(=O)C1CCN(CCn2ncc3cc(NC(=O)Nc4ccc(Oc5ccccc5)cc4)ccc32)CC1` has what log10 of IC50?
2.13

Entry `O=C(NCCc1ccc(Oc2ccccc2)cc1)Nc1ccc2c(cnn2CCN2CCCC2)c1` has what log10 of IC50?
2.74

Entry `O=C(Nc1ccc(OCc2ccccc2)cc1)Nc1ccc2cnn(CCN3CCCC3)c2c1` has what log10 of IC50?
2.05

Entry `O=c1n(-c2ccc(Oc3ccccc3)cc2)ccn1-c1ccc2c(cnn2CCN2CCCC2)c1` has what log10 of IC50?
0.77

Entry `O=C(Nc1ccc(Oc2ccccc2)cc1)Nc1ccc2c(cnn2CCCN2CCC(O)CC2)c1` has what log10 of IC50?
1.96

Entry `O=C(Nc1ccc(Oc2ccccc2)cc1)Nc1ccc2c(cnn2CCN2CCC(F)(F)C2)c1` has what log10 of IC50?
2.48

----------
Experiment notes: Area under curve in diet-induced obese mice brain at 10 mg/kg (p.o.) concentration
Type: ADME, organism-based
Set-up: dose 10 mg/kg, route oral
Settings: mouse, in vivo, po
Endpoint label: AUC (µg·h/g)
Hi! Could you send only the number? It should be in µg·h/g, unit omitted.

Entry `O=C(CNCc1ccc(Oc2ccccc2)cc1)Nc1ccc2ccn(CCN3CCCC3)c2c1` has what AUC?
0.674

Entry `O=C(Cc1ccc(OCc2ccccc2)cc1)Nc1ccc2cnn(CCN3CCCC3)c2c1` has what AUC?
1.33
